B1: Ribonuclease HI, P0A7Y4 (parent)
chain: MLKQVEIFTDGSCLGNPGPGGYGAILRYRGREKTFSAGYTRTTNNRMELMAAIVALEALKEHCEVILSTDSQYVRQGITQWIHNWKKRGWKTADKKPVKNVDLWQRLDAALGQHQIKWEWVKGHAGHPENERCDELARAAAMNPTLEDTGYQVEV

- Variants of: B1
- conditions used: Escherichia coli (strain K12); pH 3; Thermal; CD; glycine-HCl 10 mM; reversible: yes; structure 2RN2; whole UniProt chain shown
Listed next: entries and their corresponding change of melting temperature, mutant - wild type (higher = more stable).
Expressed in °C, but write only the number.

**Query** Data request, read-out change of melting temperature, mutant - wild type (higher = more stable), for H62A H83A H124A H127A
**Result** 5.5

**Query** Could you tell me which change of melting temperature, mutant - wild type (higher = more stable) is on file for H62A ?
**Result** 1.3

**Query** Quick one: change of melting temperature, mutant - wild type (higher = more stable) of H83A ?
**Result** 2.1

**Query** Which measured change of melting temperature, mutant - wild type (higher = more stable) value corresponds to H127A ?
**Result** 0.9

**Query** Name the recorded change of melting temperature, mutant - wild type (higher = more stable) for H124A H127A .
**Result** 3.6

**Query** May I ask what change of melting temperature, mutant - wild type (higher = more stable) has been recorded for H124A ?
**Result** 1.7
